Experiment: qHTS RealTime-Glo MT Cell Viability Assay in HepG2 cells - 0 hour (AID 1224889); note: % is set by controls: 0 for no effect and ±100 for the full control effect; nearly all actives have a fitted effect of over 50% in size
Settings: RealTime-Glo luminescence; series mostly up to 76.8 µM
Results filed as inconclusive are left out. Activity calls are given as the source filed them. Calls come from the whole dose curve; as a rule, active = well fitted cell-killing curve with a large enough effect in the repeat runs; inconclusive = weak or mixed curves, or effect the other way; inactive = flat fitted curve, though single readings scatter.
Experimental endpoint: activity change, negative = cytotoxicity

Solved entries (count: 4):
>  <Molecule>
CC1=C(C(=O)O)N2C(=O)[C@@H](NC(=O)[C@H](N)c3ccccc3)[C@H]2SC1

>  <activity change, negative = cytotoxicity>
inactive

$$$$
>  <Molecule>
CN1C[C@@H]2C[C@H]1CN2c1cc2c(cc1F)c(=O)c(C(=O)O)cn2C1CC1

>  <activity change, negative = cytotoxicity>
10% [at 15.8 µM] (inactive)

$$$$
>  <Molecule>
CC(=O)CC(=O)OC(C)(C)C

>  <activity change, negative = cytotoxicity>
inactive

$$$$
>  <Molecule>
O=C1NC(c2ccccc2)(c2ccccc2)C(=O)N1COP(=O)(O)O

>  <activity change, negative = cytotoxicity>
inactive

$$$$

Exam item: Given the molecule CCc1occc(=O)c1O , what is its reported activity change, negative = cytotoxicity?
Marked response: inactive

Exam item: Given the molecule Cc1ccc(C(=O)O)cc1[N+](=O)[O-] , what is its reported activity change, negative = cytotoxicity?
Marked response: inactive

Exam item: Given the molecule CC(C)Cn1cnc2c1c(=O)n(C)c(=O)n2C , what is its reported activity change, negative = cytotoxicity?
Marked response: inactive

The reported measurements were obtained from PubChem BioAssay (Tox21).
